Entry source: ChEMBL document CHEMBL4689842

Test system: U2OS
Assay: Multiplex assay against U2OS
Type: toxicity, cell-based
Details: human, 48 h, 10 µM, compound concentration 10 uM, replicate 1
Respond with Y for Population Normal (%) values of 80% and above, N for values below.

Worked examples follow.
[
  {
    "compound": "CCCS(=O)(=O)c1nc(NC2CC2)cc(-c2ccc3c(ccn3C3CC(C)(C)NC(C)(C)C3)c2)n1",
    "classification": "Y"
  },
  {
    "compound": "CN(C)C(=O)C(CCN1CCC(O)(c2ccc(Cl)cc2)CC1)(c1ccccc1)c1ccccc1.Cl [LOPERAMIDE HYDROCHLORIDE]",
    "classification": "Y"
  },
  {
    "compound": "O=C(Cc1ccc(-c2ccc(OCCN3CCOCC3)cc2)cn1)NCc1ccccc1",
    "classification": "Y"
  },
  {
    "compound": "CCn1c(=O)c(-c2ccc(-c3cncs3)cc2Cl)cc2cnc(Nc3ccc(N4CCN(C)CC4)cc3)nc21",
    "classification": "N"
  },
  {
    "compound": "O=C(Nc1ccc(-c2ccnc(Nc3ccc(N4CCOCC4)cc3)n2)cc1)[C@@H]1CCCN1",
    "classification": "Y"
  },
  {
    "compound": "Cc1ccc(C(=O)Nc2cccc(C(F)(F)F)c2)cc1Nc1nc(-c2cccnc2)nc2c1cnn2C",
    "classification": "Y"
  }
]

Challenge: # check: Population Normal (%) of `COCC(=O)NC/C=C/c1ccc2ncnc(Nc3ccc(Oc4ccc(C)nc4)c(C)c3)c2c1` is greater than or equal to 80%
Response given: Y

Challenge: Could you do the same for `Cl.O=C(c1ccc(Nc2nccc(-c3cc4ccccc4s3)n2)cc1)N1CCC(N2CCCC2)CC1` , please?
Response given: N

Challenge: Follow-up entry: `CN1CCN(C(=O)C(C)(C)c2ccc(C(=O)Nc3cn4cc(-c5ccncc5)ccc4n3)cc2)CC1`
Response given: Y

Challenge: Please do the same for `O=C(Nc1ccc(-n2nc(-c3cccnc3)cc2C(F)(F)F)cn1)c1ccc(-c2ccccc2)c(F)c1` as well.
Response given: Y

Challenge: Input `CCOc1cc(C(=O)N2CCC(N3CCN(C)CC3)CC2)ccc1Nc1ncc2c(n1)N(C1CCCC1)c1ccccc1C(=O)N2C`
Response given: Y

Challenge: Okay, and CN1C2CCC1CC(OC(c1ccc(F)cc1)c1ccc(F)cc1)C2.Cl (stereo not drawn) ?
Response given: Y

Challenge: Okay, and `COc1cc(N2CCN(C)CC2)ccc1Nc1ncc2c(n1)N(C)c1ccccc1C(=O)N2C` ?
Response given: Y

Challenge: Check `Cl.O=c1c2cccn2c2ccccc2n1CCCN1CCC(c2ccc(Cl)cc2)CC1` too.
Response given: Y

Challenge: Try this compound too: `S=C(NCCCc1c[nH]cn1)NCCCN(Cc1ccc(Cl)c(Cl)c1)c1ccc(Br)cn1`
Response given: N

Challenge: One more compound: `CCN1CCN(Cc2ccc(Nc3ncc(F)c(-c4cc(F)c5nc(C)n(C(C)C)c5c4)n3)nc2)CC1.CS(=O)(=O)O`
Response given: Y
